Tested on: HCT-116 MTAP wild-type cells
Assay: Inhibition of proliferation of HCT-116 MTAP wild-type cells (Cell-Titer Glo)
Assay type: cell-based
Conditions: Homo sapiens, HCT-116, 192 h, 8 days
Protocol: Test 2: Compound's inhibitory activity on proliferation of HCT-116 MTAP wild-type cells. […] Cell Proliferation Inhibition Assay: The compound's inhibitory activity on HCT-116 MTAP wild-type cells was assessed using the Cell-Titer Glo assay kit. […]
observed.property: log10(IC50) (log10 of the value in nM)
Recorded IC50 (log10, nM)

Examples with answers:
1. CN(C(=O)c1ccc2nc(N)c3cncn3c2c1)[C@@H]1COc2cc(C(F)(F)F)ccc21; 3.24
2. CN(C(=O)c1cc2c(cc1Cl)nc(N)c1cncn12)[C@@H]1COc2ccc(F)cc21; 3.51
3. CN(C(=O)c1ccc2nc(N)c3cc(F)cn3c2c1)[C@@H]1COc2cc(Br)ccc21; 3.81
4. C[C@@H]1OC[C@@H](N(C)C(=O)c2ccc3nc(N)c4cncn4c3c2)c2cc(F)ccc21 (single isomer, unassigned); 3.85
5. CN(C(=O)c1ccc2nc(N)c3cncn3c2c1)[C@@H]1COc2cc(-c3cnn(C)c3)ccc21; 3.82

Form field: reported log10(IC50) of CN(C(=O)c1ccc2nc(N)c3cncn3c2c1)[C@@H]1COc2cc(-c3cncc(C(F)(F)F)c3)ccc21
3.61

Form field: reported log10(IC50) of CN(C(=O)c1cc2c(cc1F)nc(N)c1cncn12)[C@@H]1COC(C)(C)c2cc(C(F)(F)F)ccc21 (single isomer, unassigned)
3.29

Form field: reported log10(IC50) of CN(C(=O)c1ccc2nc(N)c3cncn3c2c1)[C@@H]1CSc2cc(C(F)(F)F)ccc21 (single isomer, unassigned)
3.30

Form field: reported log10(IC50) of C[C@@H]1OC[C@@H](N(C)C(=O)c2cc3c(cn2)nc(N)c2cncn23)c2ccc(C(F)(F)F)cc21 (single isomer, unassigned)
3.19

Form field: reported log10(IC50) of CN(C(=O)c1ccc2nc(N)c3cncn3c2c1)[C@@H]1COCc2ccc(C(F)(F)F)cc21 (single isomer, unassigned)
3.71

Form field: reported log10(IC50) of CN(C(=O)c1ccc2nc(N)c3cncn3c2c1)C1COCc2ccc(C(F)(F)F)cc21 (centres unmarked)
3.81

Form field: reported log10(IC50) of CCN(C(=O)c1cc2c(cc1F)nc(N)c1cncn12)[C@@H]1COc2cc(C(F)(F)F)ccc21
2.80

Form field: reported log10(IC50) of CN(C(=O)c1cc2c(cc1Cl)nc(N)c1cncn12)[C@@H]1COc2cc(C(F)(F)F)ccc21
2.93

Form field: reported log10(IC50) of CN(C(=O)c1ccc2nc(N)c3cncn3c2c1)[C@@H]1CCc2cc(C(F)(F)F)ccc21
3.64

Form field: reported log10(IC50) of CC1OC[C@@H](N(C)C(=O)c2cc3c(cn2)nc(N)c2cncn23)c2ccc(F)cc21 (some centres unmarked)
3.57

----------
experiment: Mouse brain penetration pharmacokinetics study (plasma and brain); format: in vivo, ICR male mice; conditions: male, ICR, mouse, brain and plasma, po, 30 mg/kg, ICR male mice, PO(30mg/kg), sampling time 4 h, individual animals; read-out: B/P ratio
observed.property: Kp at 4 h
Lab note: jot down the number only; don't add units.

Form field: reported Kp at 4 h of CN(C(=O)c1ccc2nc(N)c3cncn3c2c1)[C@@H]1COc2cc(C(F)(F)F)ccc21
0.118

----------
test: Mouse brain penetration pharmacokinetics study (plasma and brain); format: in vivo, ICR male mice; settings: male, ICR, mouse, plasma, po, 100 mg/kg, ICR male mice, PO(100mg/kg), sampling time 8 h, individual animals; read-out: Plasma concentration
observed.property: concentration at 8 h (ng/mL)
Give the value in ng/mL but do not write ng/mL after it.

Form field: reported concentration at 8 h of CN(C(=O)c1ccc2nc(N)c3cncn3c2c1)[C@@H]1COc2cc(C(F)(F)F)ccc21
12300

----------
Test system: U87MG MTAP(-/-) cells
Experiment: Inhibition of proliferation of U87MG MTAP(-/-) cells (CellTiter-Glo)
Type: cell-based
Conditions: Homo sapiens, U-87 MG, 144 h, cell proliferation, 6 days
Method: Test 7: Assay for Inhibitory Activity of Compounds against U87MG MTAP(-/-) Cell Proliferation Materials and Cells: The U87MG MTAP(-/-) cell line was purchased from ATCC (USA). Cell culture media, fetal bovine serum (FBS), and penicillin-streptomycin were purchased from Thermo Fisher Scientific (USA). […] Cell Proliferation Inhibition Assay: The antiproliferative activity of the compounds against U87MG MTAP(-/-) cells was assessed using the CellTiter-Glo assay kit. […]
Listing of recorded IC50 by entry.
Give the value in nM but do not write nM after it.

Examples with answers:
1) CN(C(=O)c1ccc2nc(N)c3cncn3c2c1)[C@@H]1COc2cc(-c3cncc(C(F)(F)F)c3)ccc21; 475
2) [2H]C([2H])([2H])N(C(=O)c1cc2c(cc1F)nc(N)c1cncn12)[C@@H]1COc2cc(C(F)(F)F)ccc21; 58.5
3) C[C@H]1OC[C@@H](N(C)C(=O)c2cc3c(cn2)nc(N)c2cncn23)c2ccc(C(F)(F)F)nc21; 34.8
4) Cc1cc(-c2ccc3c(c2)OC[C@H]3N(C)C(=O)c2cc3c(cc2F)nc(N)c2cncn23)on1; 101
5) CN(C(=O)c1ccc2nc(N)c3cncn3c2c1)[C@@H]1COc2cc(S(F)(F)(F)(F)F)ccc21 (single isomer, unassigned); 28.8
6) Cc1ncc2c(N)nc3ccc(C(=O)N(C)[C@@H]4COc5cc(C(F)(F)F)ccc54)cc3n12; 176

Lab note: need IC50 with U87MG MTAP(-/-) cells for entry COC(=O)c1ccc2c(c1)OC[C@H]2N(C)C(=O)c1ccc2nc(N)c3cncn3c2c1 , please look it up.
777

Lab note: need IC50 with U87MG MTAP(-/-) cells for entry CN(C(=O)c1ccc2nc(N)c3cncn3c2c1)[C@@H]1COc2cc(OC(F)(F)F)ccc21 , please look it up.
108

Lab note: need IC50 with U87MG MTAP(-/-) cells for entry CC(=O)O[C@H]1C(=O)[C@@]2(C)[C@H]([C@H](OC(=O)c3ccccc3)[C@]3(O)C[C@H](OC(=O)[C@H](O)[C@@H](NC(=O)c4ccccc4)c4ccccc4)C(C)=C1C3(C)C)[C@]1(OC(C)=O)CO[C@@H]1C[C@@H]2O [Paclitaxel, reference compound] , please look it up.
5.55

Lab note: need IC50 with U87MG MTAP(-/-) cells for entry [2H]C([2H])([2H])N(C(=O)c1cc2c(cn1)nc(N)c1cncn12)[C@@H]1COc2cc(C(F)(F)F)ccc21 , please look it up.
72.1

----------
Listing of recorded IC50 by entry.
test system: HCT-116 MTAP wild-type cells; test: Inhibition of proliferation of HCT-116 MTAP wild-type cells (Cell-Titer Glo); assay type: cell-based; conditions: Homo sapiens, HCT-116, 192 h, 8 days

Examples with answers:
1. Cc1ncn2c1c(N)nc1ccc(C(=O)N(C3CC3)[C@@H]3COc4cc(C(F)(F)F)ccc43)cc12 (single isomer, unassigned); 1330 nM
2. Cc1cc(C(=O)N(C)[C@@H]2COc3cc(C(F)(F)F)ccc32)cc2c1nc(N)c1cncn12; > 10000 nM

Proceeding to the next compound to report its IC50.
Form field: reported IC50 of C[C@H]1OC[C@@H](N(C)C(=O)c2ccc3nc(N)c4cncn4c3c2)c2ccc(C(F)(F)F)cc21 (single isomer, unassigned)
145 nM

----------
assay: Mouse brain penetration pharmacokinetics study (plasma and brain); type: in vivo, ICR male mice; details: male, ICR, mouse, brain and plasma, po, 30 mg/kg, ICR male mice, PO(30mg/kg), sampling time 36 h, individual animals; read-out: B/P ratio
observed.property: Kp at 36 h

Form field: reported Kp at 36 h of CN(C(=O)c1ccc2nc(N)c3cncn3c2c1)[C@@H]1COc2cc(C(F)(F)F)ccc21 [Example 107]
0.605

----------
tested on: HCT-116 MTAP wild-type cells; assay: Inhibition of proliferation of HCT-116 MTAP wild-type cells (Cell-Titer Glo); type: cell-based; conditions: Homo sapiens, HCT-116, 192 h, 8 days
observed.property: log10 of IC50 (log10 of the value in nM)
Recorded IC50 (log10, nM)

1. Cc1cc(-c2ccc3c(c2)OC[C@H]3N(C)C(=O)c2cc3c(cc2F)nc(N)c2cncn23)on1; 3.12
2. Nc1nc2ccc(C(=O)N(C3CC3)[C@@H]3COc4cc(C(F)(F)F)ccc43)cc2n2cncc12 (single isomer, unassigned); 3.17
3. CN(C(=O)c1cc2c(cc1F)nc(N)c1cncn12)[C@@H]1COc2cc(OC(F)(F)F)ccc21; 3.27
4. CC1OC[C@@H](N(C)C(=O)c2cc3c(cn2)nc(N)c2cncn23)c2ccc(C(F)(F)F)cc21 (stereo partly drawn); 2.29
5. Nc1nc2cnc(C(=O)N(C3CC3)C3COc4cc(C(F)(F)F)ccc43)cc2n2cncc12 (stereo not drawn); 3.56
6. CN(C(=O)c1cc2c(cc1F)nc(N)c1cncn12)[C@@H]1COc2cc(S(C)(=O)=O)ccc21; 3.61
7. CN(C(=O)c1cc2c(cc1F)nc(N)c1cncn12)[C@@H]1COc2cc(-c3ccnn3C)ccc21; 2.79
8. CN(C(=O)c1cc2c(cc1F)nc(N)c1cncn12)C1COC(C)(C)c2cc(C(F)(F)F)ccc21 (stereo not drawn); 3.40
9. CN(C(=O)c1ccc2nc(N)c3cncn3c2c1)[C@@H]1COc2cc(Br)ccc21; 3.35
10. CN(C(=O)c1cc2c(cc1F)nc(N)c1cncn12)C1CSc2cc(C(F)(F)F)ccc21 (stereo not drawn); 3.43

Form field: reported log10 of IC50 of CC1OC[C@@H](N(C)C(=O)c2cc3c(cn2)nc(N)c2cncn23)c2ccc(Br)cc21 (stereo partly drawn)
2.39

Form field: reported log10 of IC50 of CN(C(=O)c1cc2c(cc1C(F)(F)F)nc(N)c1cncn12)[C@@H]1COc2cc(C(F)(F)F)ccc21
3.71

Form field: reported log10 of IC50 of CC1OC[C@@H](N(C)C(=O)c2ccc3nc(N)c4cncn4c3c2)c2cc(F)ccc21 (stereo partly drawn)
3.63

Form field: reported log10 of IC50 of CN(C(=O)c1ccc2nc(N)c3cncn3c2c1)[C@@H]1COc2cc(C#N)ccc21
3.49

Form field: reported log10 of IC50 of Cc1cc2nc(N)c3cncn3c2cc1C(=O)N(C)[C@@H]1COc2cc(C(F)(F)F)ccc21
2.45

Form field: reported log10 of IC50 of COc1ccc2c(c1)OC[C@H]2N(C)C(=O)c1cc2c(cc1F)nc(N)c1cncn12
3.96

Form field: reported log10 of IC50 of CC1OC[C@@H](N(C)C(=O)c2ccc3nc(N)c4cncn4c3c2)c2ccc(-c3cnn(C)c3)cc21 (stereo partly drawn)
3.23
